# Tested on: HepG2 cells
# EXPERIMENT_DESCRIPTION: Test Example 2: inhibition of apolipoprotein B secretion from HepG2 cells, ELISA (also used for metabolites in Test Example 8)
# Format: cell-based
# CONDITION_PARAMETERS: Homo sapiens, 24 hours, apo B in supernatant by ELISA, read-out: Test Example 2 Inhibition of apo B secretion IC50
ASSAY_METRIC: IC50 (nM)

CCNC(=O)C(COC(=O)Cc1ccc(NC(=O)c2ccccc2-c2ccc(C(F)(F)F)cc2)c(CC(C)C)c1)(C(=O)NCC)c1ccccc1 :: 0.53

A = CN(C)C(=O)c1cc(CC(=O)OCC(C(=O)OCC(F)(F)F)(C(=O)OCC(F)(F)F)c2ccccc2)ccc1NC(=O)c1ccccc1-c1ccc(C(F)(F)F)cc1
B = CCC(=O)N[C@H](COC(=O)Cc1ccc(NC(=O)c2ccccc2-c2ccc(C(F)(F)F)cc2)c(C(=O)N(C)C)c1)c1ccccc1
C = CN(C)C(=O)c1cc(CC(=O)OC[C@@H](NS(C)(=O)=O)c2ccccc2)ccc1NC(=O)c1ccccc1-c1ccc(C(F)(F)F)cc1
D = CCOC(=O)C(COC(=O)Cc1ccc(NC(=O)c2ccccc2-c2ccc(C(F)(F)F)cc2)c(C(=O)N(C)C)c1)(C(=O)OCC)c1ccccc1C
Arrange the 4 entries by IC50 so the values rise. A ranking is expressed here by listing the labels in the requested order.
A, D, B, C

1 = CCOC(=O)C(COC(=O)Cc1ccc(NC(=O)c2cc(C)ccc2-c2ccc(C(F)(F)F)cc2)c(C(=O)N(C)C)c1)(C(=O)OCC)c1ccccc1
2 = CCNC(=O)C(CCOC(=O)Cc1ccc(NC(=O)c2ccccc2-c2ccc(C(F)(F)F)cc2)c(C(=O)N(C)CC)c1)(C(=O)NCC)c1ccccc1
3 = CCNC(=O)C(COC(=O)Cc1ccc(NC(=O)c2ccccc2-c2ccc(C(F)(F)F)cc2)c(N2CCCCC2)c1)(C(=O)NCC)c1ccccc1
Arrange the 3 entries by IC50 so the values rise. A ranking is expressed here by listing the labels in the requested order.
2, 1, 3
(2: 0.53 nM, 1: 1.2 nM, 3: 16 nM)

###

# TARGET_UNDER_TEST: Microsomal triglyceride transfer protein (MTP) from bovine liver (Bos taurus)
# Construct: from tissue; host or cells: bovine liver
# Sequence (P55156 12-887): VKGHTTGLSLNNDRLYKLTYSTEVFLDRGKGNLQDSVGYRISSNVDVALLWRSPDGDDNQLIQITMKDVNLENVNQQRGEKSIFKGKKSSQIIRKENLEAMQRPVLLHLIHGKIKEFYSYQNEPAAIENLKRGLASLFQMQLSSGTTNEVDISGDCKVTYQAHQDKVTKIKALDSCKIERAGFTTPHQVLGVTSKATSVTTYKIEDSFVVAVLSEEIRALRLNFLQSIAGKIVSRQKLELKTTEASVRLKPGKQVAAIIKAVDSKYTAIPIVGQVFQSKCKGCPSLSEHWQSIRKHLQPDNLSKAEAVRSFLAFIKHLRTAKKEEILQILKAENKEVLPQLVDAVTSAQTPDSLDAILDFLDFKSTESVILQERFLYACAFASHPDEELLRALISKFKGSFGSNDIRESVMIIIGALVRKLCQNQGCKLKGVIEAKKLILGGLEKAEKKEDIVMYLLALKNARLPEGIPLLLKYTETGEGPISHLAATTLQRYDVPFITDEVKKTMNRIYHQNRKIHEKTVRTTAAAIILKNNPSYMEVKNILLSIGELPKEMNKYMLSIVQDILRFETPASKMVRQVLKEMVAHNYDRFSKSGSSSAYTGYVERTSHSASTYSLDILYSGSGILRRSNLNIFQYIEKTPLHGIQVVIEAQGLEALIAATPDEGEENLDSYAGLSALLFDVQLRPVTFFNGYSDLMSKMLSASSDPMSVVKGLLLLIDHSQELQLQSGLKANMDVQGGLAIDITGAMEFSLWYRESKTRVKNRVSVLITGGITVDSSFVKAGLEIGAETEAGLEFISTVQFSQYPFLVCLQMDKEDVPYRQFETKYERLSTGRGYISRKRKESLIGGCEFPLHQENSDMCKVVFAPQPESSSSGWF
# Sequence (P05307 21-510 partner): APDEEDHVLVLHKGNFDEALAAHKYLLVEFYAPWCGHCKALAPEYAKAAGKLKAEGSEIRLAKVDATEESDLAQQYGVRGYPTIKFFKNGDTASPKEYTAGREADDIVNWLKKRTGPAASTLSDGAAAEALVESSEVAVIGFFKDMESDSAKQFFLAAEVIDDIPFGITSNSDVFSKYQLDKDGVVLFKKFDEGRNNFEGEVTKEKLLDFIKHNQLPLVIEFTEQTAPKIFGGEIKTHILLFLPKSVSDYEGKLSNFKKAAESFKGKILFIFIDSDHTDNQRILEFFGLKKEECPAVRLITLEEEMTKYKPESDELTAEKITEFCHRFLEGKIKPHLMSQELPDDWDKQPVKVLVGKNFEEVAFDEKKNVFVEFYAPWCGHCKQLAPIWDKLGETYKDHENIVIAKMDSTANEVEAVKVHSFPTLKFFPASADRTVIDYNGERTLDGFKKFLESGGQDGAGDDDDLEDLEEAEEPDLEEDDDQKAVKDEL
# EXPERIMENT_DESCRIPTION: Test Example 1: inhibition of interliposomal triglyceride (TG) transfer activity by MTP (also used for metabolites in Test Example 8)
# Type: biochemical
# CONDITION_PARAMETERS: MTP-mediated 14C-triolein transfer between liposomes, 37° C., one hour; read-out: Test Example 1 MTP inhibition IC50
ASSAY_METRIC: IC50 (nM)

CCNC(=O)C(COC(=O)Cc1ccc(NC(=O)c2ccccc2-c2ccc(Cl)cc2)cc1)(C(=O)NCC)c1ccccc1 :: 1.6
CCCNC(=O)C(CCOC(=O)Cc1cccc(NC(=O)c2ccccc2-c2ccc(C(F)(F)F)cc2)c1)(C(=O)NCCC)c1ccccc1 :: 4.5
COC(=O)C(COC(=O)Cc1ccc(NC(=O)c2ccccc2-c2ccc(C(F)(F)F)cc2)cc1)(C(=O)OC)c1ccccc1 :: 5.8
CCNC(=O)C(CCCOC(=O)Cc1cccc(NC(=O)c2ccccc2-c2ccc(C(F)(F)F)cc2)c1C)(C(=O)NCC)c1ccccc1 :: 6.2

a = CCCOC(=O)C(COC(=O)Cc1ccc(NC(=O)c2ccccc2-c2ccc(C(F)(F)F)cc2)cc1)(C(=O)OCCC)c1ccccc1
b = O=C(Cc1ccc(NC(=O)c2ccccc2-c2ccc(C(F)(F)F)cc2)cc1)OCC1(C(=O)NCC(F)(F)F)c2ccccc2-c2ccccc21
c = CCCNC(=O)C(COC(=O)Cc1ccc(NC(=O)c2ccccc2-c2ccc(C(F)(F)F)cc2)c(C)c1)(C(=O)NCCC)c1ccccc1
Could you please sort these 3 entries by IC50 from high to low? A ranking is expressed here by listing the labels in the requested order.
a, b, c
